Target: human Ang4 (Homo sapiens, UniProt Q9Y264)
Construct: purchased R&D Systems 964-AN-025/CF
Sequence (Q9Y264 25-503): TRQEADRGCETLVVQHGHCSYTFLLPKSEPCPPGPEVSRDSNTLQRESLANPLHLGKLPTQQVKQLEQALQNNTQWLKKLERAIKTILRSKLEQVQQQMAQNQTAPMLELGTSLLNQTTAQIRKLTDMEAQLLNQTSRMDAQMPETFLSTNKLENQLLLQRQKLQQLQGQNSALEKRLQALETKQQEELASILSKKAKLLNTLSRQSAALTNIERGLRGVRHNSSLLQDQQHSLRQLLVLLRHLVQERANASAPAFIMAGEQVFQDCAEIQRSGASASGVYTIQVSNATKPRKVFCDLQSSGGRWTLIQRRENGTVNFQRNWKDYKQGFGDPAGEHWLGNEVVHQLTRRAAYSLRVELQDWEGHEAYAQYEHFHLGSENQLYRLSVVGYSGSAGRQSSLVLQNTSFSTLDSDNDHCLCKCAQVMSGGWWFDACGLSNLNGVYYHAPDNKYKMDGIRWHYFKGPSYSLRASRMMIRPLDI
Experiment: BIACORE (SPR) binding of peptides to immobilized recombinant Ang4
Settings: CM5 chip, 10-50 μM peptide
reported endpoint: binding to immobilized Ang4 (in words)

>>> print(df.to_string())
                                        seq                       reported_endpoint       measured_value
0  LMDTVHNLVNL (Ac-LMDTVHNLVNL-NH2) [CGEN-A8, amino acid residues 254-264 of angiopoietin 1]  binding to immobilized Ang4 (in words)  none or low binding
1  NEILKIHEKNSLLEHKILEMEGKHK (Ac-NEILKIHEKNSLLEHKILEMEGKHK-NH2) [CGEN-H7, amino acid residues 182-206 of angiopoietin 1]  binding to immobilized Ang4 (in words)  none or low binding

====

Target: recombinant human Ang1 (Homo sapiens, UniProt Q15389)
Construct: purchased R&D Systems 923-AN-025/CF
Sequence (Q15389 16-498): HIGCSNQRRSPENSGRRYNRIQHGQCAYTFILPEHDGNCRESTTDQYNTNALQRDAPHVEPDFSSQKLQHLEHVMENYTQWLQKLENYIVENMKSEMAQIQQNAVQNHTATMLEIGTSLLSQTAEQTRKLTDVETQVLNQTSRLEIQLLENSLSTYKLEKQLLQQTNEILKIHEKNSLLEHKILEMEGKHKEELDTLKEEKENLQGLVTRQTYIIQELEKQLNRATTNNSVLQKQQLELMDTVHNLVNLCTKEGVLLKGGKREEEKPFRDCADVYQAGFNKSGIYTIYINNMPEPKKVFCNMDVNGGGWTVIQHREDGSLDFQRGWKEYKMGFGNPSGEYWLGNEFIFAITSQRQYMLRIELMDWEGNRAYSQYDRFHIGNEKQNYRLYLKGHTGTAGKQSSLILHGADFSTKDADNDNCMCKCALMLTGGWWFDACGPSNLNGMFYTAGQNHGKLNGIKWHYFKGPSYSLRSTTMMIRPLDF
Test: BIACORE (SPR) binding of peptides to immobilized recombinant Ang1
Conditions: CM5 chip, 10-50 μM peptide

seq	binding to immobilized Ang1 (in words)
NEILKIHEKNSLLEHKILEMEGKHK (Ac-NEILKIHEKNSLLEHKILEMEGKHK-NH2) [CGEN-H7, amino acid residues 182-206 of angiopoietin 1]	none or low binding
LKEEKENLQGLVTRQTYIIQELEKQLNRAT (Ac-LKEEKENLQGLVTRQTYIIQELEKQLNRAT-NH2) [CGEN-H2, amino acid residues 212-241 of angiopoietin 1]	none or low binding
LMDTVHNLVNL (Ac-LMDTVHNLVNL-NH2) [CGEN-A8, amino acid residues 254-264 of angiopoietin 1]	none or low binding

====

Biological target: human Ang2 (Homo sapiens)
Construct: purchased R&D Systems 623-AN-025/CF
Sequence (O15123 19-496): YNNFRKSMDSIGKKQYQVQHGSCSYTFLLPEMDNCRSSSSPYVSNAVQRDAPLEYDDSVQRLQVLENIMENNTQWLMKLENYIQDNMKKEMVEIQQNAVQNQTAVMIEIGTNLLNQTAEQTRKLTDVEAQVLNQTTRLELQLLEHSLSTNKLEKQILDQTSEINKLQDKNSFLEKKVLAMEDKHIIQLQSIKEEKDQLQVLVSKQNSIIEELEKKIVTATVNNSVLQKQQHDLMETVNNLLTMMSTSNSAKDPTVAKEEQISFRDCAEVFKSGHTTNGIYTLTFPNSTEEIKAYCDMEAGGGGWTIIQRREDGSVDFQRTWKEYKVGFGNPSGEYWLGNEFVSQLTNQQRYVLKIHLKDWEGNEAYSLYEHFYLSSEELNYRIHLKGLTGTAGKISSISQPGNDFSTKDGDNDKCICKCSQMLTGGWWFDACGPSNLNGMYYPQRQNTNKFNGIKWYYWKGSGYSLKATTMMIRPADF
Experiment: BIACORE (SPR) binding of peptides to immobilized recombinant Ang2
Details: CM5 chip, 10-50 μM peptide

seq	binding to immobilized Ang2 (in words)
LMDTVHNLVNL (Ac-LMDTVHNLVNL-NH2) [CGEN-A8, amino acid residues 254-264 of angiopoietin 1]	none or low binding
QLQVLVSKQNSIIEEL (Ac-QLQVLVSKQNSIIEEL-NH2) [CGEN-G4, amino acid residues 215-230 of angiopoietin 2]	none or low binding
LKEEKENLQGLVTRQTYIIQELEKQLNRAT (Ac-LKEEKENLQGLVTRQTYIIQELEKQLNRAT-NH2) [CGEN-H2, amino acid residues 212-241 of angiopoietin 1]	none or low binding

====

Molecular target: human Ang4 (Homo sapiens, UniProt Q9Y264)
Construct: purchased R&D Systems 964-AN-025/CF
Sequence (Q9Y264 25-503): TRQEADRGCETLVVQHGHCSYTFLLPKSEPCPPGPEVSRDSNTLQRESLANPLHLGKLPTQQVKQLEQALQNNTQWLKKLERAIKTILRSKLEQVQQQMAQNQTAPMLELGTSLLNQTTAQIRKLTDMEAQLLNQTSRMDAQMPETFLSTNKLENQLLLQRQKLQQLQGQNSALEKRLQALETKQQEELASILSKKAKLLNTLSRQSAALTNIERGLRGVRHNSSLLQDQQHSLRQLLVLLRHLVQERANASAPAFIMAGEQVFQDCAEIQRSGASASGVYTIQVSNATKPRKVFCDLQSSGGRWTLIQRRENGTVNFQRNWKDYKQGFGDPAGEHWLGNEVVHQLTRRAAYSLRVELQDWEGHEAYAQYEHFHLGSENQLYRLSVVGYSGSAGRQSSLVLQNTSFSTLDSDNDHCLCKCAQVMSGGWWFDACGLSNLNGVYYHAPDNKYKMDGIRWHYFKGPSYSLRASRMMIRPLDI
Assay: BIACORE (SPR) binding of peptides to immobilized recombinant Ang4
Settings: CM5 chip, 10-50 μM peptide

seq	tested on	binding to immobilized Ang4 (in words)
TNNSVLQKQQL (Ac-TNNSVLQKQQL-NH2) [CGEN-H3, amino acid residues 242-252 of angiopoietin 1]	human Ang4 (Homo sapiens, UniProt Q9Y264)	none or low binding
LKEEKENLQGLVTRQTYIIQELEKQLNRAT (Ac-LKEEKENLQGLVTRQTYIIQELEKQLNRAT-NH2) [CGEN-H2, amino acid residues 212-241 of angiopoietin 1]	human Ang4 (Homo sapiens, UniProt Q9Y264)	none or low binding
QLQVLVSKQNSIIEEL (Ac-QLQVLVSKQNSIIEEL-NH2) [CGEN-G4, amino acid residues 215-230 of angiopoietin 2]	human Ang4 (Homo sapiens, UniProt Q9Y264)	none or low binding

====

Molecular target: recombinant human Ang1 (Homo sapiens)
Construct: purchased R&D Systems 923-AN-025/CF
Sequence (Q15389 16-498): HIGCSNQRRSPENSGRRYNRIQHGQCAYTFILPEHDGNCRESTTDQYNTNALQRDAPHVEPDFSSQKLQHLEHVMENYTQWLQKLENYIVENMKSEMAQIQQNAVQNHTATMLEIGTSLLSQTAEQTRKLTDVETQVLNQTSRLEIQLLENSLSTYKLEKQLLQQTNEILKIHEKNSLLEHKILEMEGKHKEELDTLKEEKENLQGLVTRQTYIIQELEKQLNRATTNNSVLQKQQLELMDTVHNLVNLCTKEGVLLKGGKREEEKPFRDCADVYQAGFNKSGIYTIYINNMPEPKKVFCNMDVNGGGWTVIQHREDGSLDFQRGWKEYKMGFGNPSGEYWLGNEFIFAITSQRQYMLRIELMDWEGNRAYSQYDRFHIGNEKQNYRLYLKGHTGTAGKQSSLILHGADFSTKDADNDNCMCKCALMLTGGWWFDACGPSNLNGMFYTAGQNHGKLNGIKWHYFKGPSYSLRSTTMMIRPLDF
Assay: BIACORE (SPR) binding of peptides to immobilized recombinant Ang1
Conditions: CM5 chip, 10-50 μM peptide
Procedure: […] Peptide-protein binding was analyzed using surface plasmon resonance. […] Solutions containing different concentrations of CGEN-G6 [SEQ ID NO: 6], CGEN-F9 [SEQ ID NO: 7], CGEN-F12 [SEQ ID NO: 8], CGEN-A11 [SEQ ID NO: 10], and CGEN-G2 [SEQ ID NO: 11] peptides (as indicated in Table 2) were injected into the sample chamber of the BIACORE device at a rate of […] and the interaction was monitored using surface plasmon resonance. […] Data was analyzed using BIAevaluation software. […]
reported endpoint: binding to immobilized Ang1 (in words)

>>> df
                                        seq       measured_value
0  QLQVLVSKQNSIIEEL (Ac-QLQVLVSKQNSIIEEL-NH2) [CGEN-G4, amino acid residues 215-230 of angiopoietin 2]  none or low binding
1  TNNSVLQKQQL (Ac-TNNSVLQKQQL-NH2) [CGEN-H3, amino acid residues 242-252 of angiopoietin 1]  none or low binding
